Reported pKi values follow for various compounds
target: Dimer of Gag-Pol polyprotein [489-587] (Human immunodeficiency virus 1, UniProt P12497); construct: 489-587; test: Protease Inhibition Assay; conditions: pH 4.7; 37 °C
pKi: −log10 of the molar value.
Measured endpoint: pKi

>>> reported_measurement("CC(C)(C)NC(=O)[C@@H]1CC(=O)CN1C(=O)[C@@H](O)[C@H](Cc1ccccc1)NC(=O)[C@H](CC(N)=O)NC(=O)OCc1ccccc1")
7.90
>>> reported_measurement("Cn1cc(C(=O)N[C@@H](CC(N)=O)C(=O)N[C@@H](Cc2ccccc2)[C@H](O)C(=O)N2C[C@@H](Cl)C[C@H]2C(=O)NC(C)(C)C)c2ccccc21")
7.70
>>> reported_measurement("CC(C)(C)NC(=O)[C@@H]1CCCN1C(=O)[C@@H](O)[C@H](Cc1ccccc1)NC(=O)[C@H](CC(N)=O)NC(=O)OCc1ccccc1")
7.24
>>> reported_measurement("CC(C)(C)NC(=O)[C@@H]1CC(F)CN1C(=O)[C@@H](O)[C@H](Cc1ccccc1)NC(=O)[C@H](CC(N)=O)NC(=O)OCc1ccccc1 (some centres not stated)")
7.74
>>> reported_measurement("COC1(OC)C[C@@H](C(=O)NC(C)(C)C)N(C(=O)[C@@H](O)[C@H](Cc2ccccc2)NC(=O)[C@H](CC(N)=O)NC(=O)OCc2ccccc2)C1")
7.04
>>> reported_measurement("CC(C)(C)NC(=O)[C@@H]1[C@@H](Cl)CCN1C(=O)[C@@H](O)[C@H](Cc1ccccc1)NC(=O)[C@H](CC(N)=O)NC(=O)OCc1ccccc1")
7.84
>>> reported_measurement("CC(C)(C)NC(=O)[C@@H]1C[C@@H](Cl)CN1C(=O)[C@@H](O)[C@H](Cc1ccccc1)NC(=O)[C@H](CC(N)=O)NC(=O)OCc1ccccc1")
7.05
